B1: Cytoplasmic polyadenylation element-binding protein 2, residues 513 to 575; numbered along this chain, Q7Z5Q1 (parent)
chain: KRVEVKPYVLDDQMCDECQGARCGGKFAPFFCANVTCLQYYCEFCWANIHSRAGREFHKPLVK

Variants of: B1
Test: abundance fitness (aPCA) (normalised: wild type 0, dead -1); higher = more abundant; growth selection in yeast, the domain comes from the species named
Settings: Homo sapiens
value_kind: abundance fitness
Output spec: single numeric token, no unit.

Example entries begin here.
variant_annotation: C45Y
value_kind: abundance fitness
endpoint_value: -0.917
//
variant_annotation: F57D
value_kind: abundance fitness
endpoint_value: 0.054
//
variant_annotation: F57G
value_kind: abundance fitness
endpoint_value: 0.166
//
variant_annotation: V9P
value_kind: abundance fitness
endpoint_value: -0.055
//
variant_annotation: L38N
value_kind: abundance fitness
endpoint_value: 0.219
//
variant_annotation: G25T
value_kind: abundance fitness
endpoint_value: -0.088
//
variant_annotation: V5R
value_kind: abundance fitness
endpoint_value: 0.005
//
variant_annotation: P7L
value_kind: abundance fitness
endpoint_value: -0.579

Query block: Please indicate abundance fitness recorded for "E56R"
Result block: -0.01

Query block: Please indicate abundance fitness recorded for "V3D"
Result block: 0.107

Query block: Please indicate abundance fitness recorded for "E4N"
Result block: -0.15
